# assay-overview: Binding affinity to human CENP-E T183A/K184T mutant assessed as inhibition constant
measured-endpoint: pKi
Scale note: pKi = -log10(concentration in M).

Give reported pKi value for CC(C)Oc1ccc(C(=O)N[C@H](CNC(=O)CN(C)C)Cc2ccc(-c3cn4cccc([C@H](C)O)c4n3)cc2)cc1Cl [GSK-923295A]
7.96

====

# target-entity: Centromere-associated protein E (Homo sapiens, UniProt Q02224, I182L/K184T/T183A)
# Sequence (Q02224 whole entry I182L/T183A/K184T): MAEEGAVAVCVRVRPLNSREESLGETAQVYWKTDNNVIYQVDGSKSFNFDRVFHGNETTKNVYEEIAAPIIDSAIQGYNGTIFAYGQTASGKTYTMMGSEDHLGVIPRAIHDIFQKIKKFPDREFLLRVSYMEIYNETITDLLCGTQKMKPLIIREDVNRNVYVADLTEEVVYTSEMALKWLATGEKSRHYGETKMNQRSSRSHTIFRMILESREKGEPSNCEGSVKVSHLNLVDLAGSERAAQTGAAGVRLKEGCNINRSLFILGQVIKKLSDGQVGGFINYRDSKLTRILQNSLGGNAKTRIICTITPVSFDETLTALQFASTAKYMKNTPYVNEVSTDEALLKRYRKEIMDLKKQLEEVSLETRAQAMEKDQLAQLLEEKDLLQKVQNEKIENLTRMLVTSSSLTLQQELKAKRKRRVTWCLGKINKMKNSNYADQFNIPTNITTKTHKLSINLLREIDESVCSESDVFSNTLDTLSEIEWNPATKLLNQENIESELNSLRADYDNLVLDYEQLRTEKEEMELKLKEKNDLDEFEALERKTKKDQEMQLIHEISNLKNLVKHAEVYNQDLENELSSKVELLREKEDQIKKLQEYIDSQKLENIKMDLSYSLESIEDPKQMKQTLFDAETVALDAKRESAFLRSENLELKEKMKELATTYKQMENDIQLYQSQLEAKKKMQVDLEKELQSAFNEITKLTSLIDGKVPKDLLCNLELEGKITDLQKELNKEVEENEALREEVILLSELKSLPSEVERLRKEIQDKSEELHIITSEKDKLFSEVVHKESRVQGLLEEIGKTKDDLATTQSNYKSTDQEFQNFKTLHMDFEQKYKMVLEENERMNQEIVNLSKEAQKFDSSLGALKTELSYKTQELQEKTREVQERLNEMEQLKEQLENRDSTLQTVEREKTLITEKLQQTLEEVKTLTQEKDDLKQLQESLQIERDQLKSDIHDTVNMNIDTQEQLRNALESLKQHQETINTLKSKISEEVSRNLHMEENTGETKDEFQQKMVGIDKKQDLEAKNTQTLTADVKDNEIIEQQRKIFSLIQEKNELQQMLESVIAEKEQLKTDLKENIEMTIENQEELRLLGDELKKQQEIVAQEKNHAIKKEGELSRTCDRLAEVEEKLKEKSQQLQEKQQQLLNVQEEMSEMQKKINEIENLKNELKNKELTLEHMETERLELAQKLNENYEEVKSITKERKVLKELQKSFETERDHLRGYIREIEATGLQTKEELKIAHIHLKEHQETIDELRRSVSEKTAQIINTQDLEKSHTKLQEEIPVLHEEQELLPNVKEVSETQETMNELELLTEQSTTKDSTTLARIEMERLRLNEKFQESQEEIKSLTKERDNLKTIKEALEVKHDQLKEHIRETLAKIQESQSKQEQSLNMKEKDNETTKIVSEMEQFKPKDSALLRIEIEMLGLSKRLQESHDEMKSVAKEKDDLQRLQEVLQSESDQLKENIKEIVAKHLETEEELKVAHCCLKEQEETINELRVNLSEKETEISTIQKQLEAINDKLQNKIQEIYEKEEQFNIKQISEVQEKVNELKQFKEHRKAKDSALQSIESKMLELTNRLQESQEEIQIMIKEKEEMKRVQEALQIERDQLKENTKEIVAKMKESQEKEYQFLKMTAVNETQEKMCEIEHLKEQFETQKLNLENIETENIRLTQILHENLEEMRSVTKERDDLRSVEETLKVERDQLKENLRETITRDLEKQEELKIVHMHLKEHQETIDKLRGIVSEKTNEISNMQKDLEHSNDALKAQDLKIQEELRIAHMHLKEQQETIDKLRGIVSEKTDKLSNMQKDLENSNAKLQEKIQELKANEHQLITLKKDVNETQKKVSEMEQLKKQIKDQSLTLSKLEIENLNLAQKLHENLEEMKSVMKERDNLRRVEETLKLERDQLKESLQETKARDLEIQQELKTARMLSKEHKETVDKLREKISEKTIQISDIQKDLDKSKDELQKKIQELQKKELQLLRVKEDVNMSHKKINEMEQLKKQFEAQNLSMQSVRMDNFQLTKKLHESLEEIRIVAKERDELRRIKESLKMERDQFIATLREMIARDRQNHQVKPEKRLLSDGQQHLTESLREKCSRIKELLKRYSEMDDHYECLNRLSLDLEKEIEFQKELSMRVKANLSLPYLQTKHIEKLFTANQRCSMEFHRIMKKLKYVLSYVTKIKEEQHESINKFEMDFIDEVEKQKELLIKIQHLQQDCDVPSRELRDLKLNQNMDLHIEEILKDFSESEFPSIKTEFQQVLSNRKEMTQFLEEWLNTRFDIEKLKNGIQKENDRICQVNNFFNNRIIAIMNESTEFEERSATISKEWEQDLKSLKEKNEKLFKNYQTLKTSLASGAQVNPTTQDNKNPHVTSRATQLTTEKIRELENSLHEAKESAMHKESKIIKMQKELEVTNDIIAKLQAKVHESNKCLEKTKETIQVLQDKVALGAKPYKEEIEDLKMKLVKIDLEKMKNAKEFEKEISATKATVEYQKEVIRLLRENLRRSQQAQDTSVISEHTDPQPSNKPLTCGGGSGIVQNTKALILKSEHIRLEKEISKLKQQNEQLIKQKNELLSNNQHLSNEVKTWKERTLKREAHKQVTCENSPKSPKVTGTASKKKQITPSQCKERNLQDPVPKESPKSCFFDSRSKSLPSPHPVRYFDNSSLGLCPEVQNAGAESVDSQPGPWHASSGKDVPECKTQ
# assay-overview: Binding affinity to human CENP-E I182L/T183A/K184T mutant assessed as inhibition constant
measured-endpoint: pKi
Lab note — pKi values are minus log10 of concentrations in M.

> print(dat)
                                   compound                             target.entity  measured.endpoint  assay.value
1  CC(C)Oc1ccc(C(=O)N[C@H](CNC(=O)CN(C)C)Cc2ccc(-c3cn4cccc([C@H](C)O)c4n3)cc2)cc1Cl [GSK-923295A]  Centromere-associated protein E (Homo sapiens, UniProt Q02224, I182L/K184T/T183A)                pKi         7.19

Lab note: next compound to report on.
Provide the reported pKi (system: Centromere-associated protein E (Homo sapiens, UniProt Q02224, I182L/K184T/T183A)) for CNC(=O)C(Cc1ccc(C(=O)c2ccccc2)cc1)NC(=O)c1ccc(OC(C)C)c(Cl)c1 (configuration not stated)
7.14

====

# target-entity: Centromere-associated protein E (Mus musculus)
# Sequence (Q6RT24 whole entry): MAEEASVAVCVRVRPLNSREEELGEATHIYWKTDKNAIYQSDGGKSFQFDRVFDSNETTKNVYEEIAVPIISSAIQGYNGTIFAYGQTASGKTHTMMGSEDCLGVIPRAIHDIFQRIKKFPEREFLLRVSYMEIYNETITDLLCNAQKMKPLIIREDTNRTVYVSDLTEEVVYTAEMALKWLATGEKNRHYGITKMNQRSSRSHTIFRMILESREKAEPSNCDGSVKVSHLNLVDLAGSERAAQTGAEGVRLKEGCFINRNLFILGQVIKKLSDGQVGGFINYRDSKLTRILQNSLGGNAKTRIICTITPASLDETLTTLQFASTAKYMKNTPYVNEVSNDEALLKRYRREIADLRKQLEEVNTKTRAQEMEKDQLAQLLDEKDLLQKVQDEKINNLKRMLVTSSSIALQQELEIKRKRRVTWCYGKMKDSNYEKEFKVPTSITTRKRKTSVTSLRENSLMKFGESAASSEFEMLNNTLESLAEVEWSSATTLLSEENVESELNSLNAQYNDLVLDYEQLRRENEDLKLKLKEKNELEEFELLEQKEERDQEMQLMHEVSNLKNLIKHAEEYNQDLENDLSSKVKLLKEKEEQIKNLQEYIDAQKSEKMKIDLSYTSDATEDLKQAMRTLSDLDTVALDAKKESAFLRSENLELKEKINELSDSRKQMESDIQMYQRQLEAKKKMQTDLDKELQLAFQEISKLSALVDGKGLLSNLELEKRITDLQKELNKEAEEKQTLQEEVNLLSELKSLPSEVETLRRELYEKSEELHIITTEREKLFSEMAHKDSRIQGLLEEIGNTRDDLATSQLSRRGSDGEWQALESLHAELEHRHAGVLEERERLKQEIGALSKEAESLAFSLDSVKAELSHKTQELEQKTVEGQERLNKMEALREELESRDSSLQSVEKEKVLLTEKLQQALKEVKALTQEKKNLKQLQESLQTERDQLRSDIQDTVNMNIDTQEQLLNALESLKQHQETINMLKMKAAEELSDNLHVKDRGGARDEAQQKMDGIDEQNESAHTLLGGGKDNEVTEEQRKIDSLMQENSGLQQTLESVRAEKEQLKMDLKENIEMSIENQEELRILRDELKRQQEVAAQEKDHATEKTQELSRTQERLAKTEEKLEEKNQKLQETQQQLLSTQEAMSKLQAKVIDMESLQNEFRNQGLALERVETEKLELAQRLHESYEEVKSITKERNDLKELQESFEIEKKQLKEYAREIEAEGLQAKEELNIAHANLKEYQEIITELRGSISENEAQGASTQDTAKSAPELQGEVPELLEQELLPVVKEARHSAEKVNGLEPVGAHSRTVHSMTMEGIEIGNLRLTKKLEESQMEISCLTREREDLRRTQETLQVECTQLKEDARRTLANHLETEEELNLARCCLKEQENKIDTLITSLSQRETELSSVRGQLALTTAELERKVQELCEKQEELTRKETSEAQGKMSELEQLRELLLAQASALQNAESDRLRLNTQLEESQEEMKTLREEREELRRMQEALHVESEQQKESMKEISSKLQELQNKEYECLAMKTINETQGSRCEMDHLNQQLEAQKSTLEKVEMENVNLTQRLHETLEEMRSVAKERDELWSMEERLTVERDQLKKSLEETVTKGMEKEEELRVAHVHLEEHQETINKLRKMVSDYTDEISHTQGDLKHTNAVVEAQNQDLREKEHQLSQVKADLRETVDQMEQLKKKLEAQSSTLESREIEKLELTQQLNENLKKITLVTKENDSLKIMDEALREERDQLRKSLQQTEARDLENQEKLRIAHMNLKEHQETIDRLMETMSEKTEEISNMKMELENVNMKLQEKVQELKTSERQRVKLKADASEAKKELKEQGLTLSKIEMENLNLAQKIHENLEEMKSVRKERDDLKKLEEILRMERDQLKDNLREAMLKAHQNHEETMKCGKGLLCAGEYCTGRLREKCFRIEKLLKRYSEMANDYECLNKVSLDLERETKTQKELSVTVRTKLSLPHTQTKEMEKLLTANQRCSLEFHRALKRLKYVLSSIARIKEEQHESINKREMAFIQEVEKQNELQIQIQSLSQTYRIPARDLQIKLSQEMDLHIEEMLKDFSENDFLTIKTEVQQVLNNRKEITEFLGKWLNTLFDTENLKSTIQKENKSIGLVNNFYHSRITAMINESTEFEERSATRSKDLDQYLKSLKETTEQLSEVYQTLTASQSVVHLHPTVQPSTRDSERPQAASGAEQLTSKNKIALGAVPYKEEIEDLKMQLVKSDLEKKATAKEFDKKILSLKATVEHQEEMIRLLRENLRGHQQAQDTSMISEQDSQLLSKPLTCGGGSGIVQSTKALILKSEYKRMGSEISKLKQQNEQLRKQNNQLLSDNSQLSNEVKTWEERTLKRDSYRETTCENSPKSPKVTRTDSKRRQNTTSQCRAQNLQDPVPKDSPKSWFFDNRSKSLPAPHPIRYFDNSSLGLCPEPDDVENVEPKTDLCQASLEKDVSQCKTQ
measured-endpoint: Ki

Retrieve Ki measured for CC(C)Oc1ccc(C(=O)N[C@H](CNC(=O)CN(C)C)Cc2ccc(-c3cn4cccc([C@H](C)O)c4n3)cc2)cc1Cl [GSK-923295A] and print it.
0.067 µM

====

# target-entity: Centromere-associated protein E (Homo sapiens, UniProt Q02224)
# assay-overview: Binding affinity to wild-type human CENP-E assessed as inhibition constant
Reported Ki by item:
# unit: nM | format: bare number

> print(dat)
                                   compound  measured.endpoint  readout.unit  assay.value
1  CC(C)Oc1ccc(C(=O)N[C@H](CNC(=O)CN(C)C)Cc2ccc(-c3cn4cccc([C@H](C)O)c4n3)cc2)cc1Cl [GSK-923295A]                 Ki            nM          3.2

Kindly consider the entry below.
Specify the recorded Ki for CNC(=O)C(Cc1ccc(C(=O)c2ccccc2)cc1)NC(=O)c1ccc(OC(C)C)c(Cl)c1 (configuration not stated) , system: Centromere-associated protein E (Homo sapiens, UniProt Q02224).
4.2

====

# target-entity: Centromere-associated protein E (Homo sapiens, UniProt Q02224, I182L/K184T)
# assay-overview: Binding affinity to human CENP-E I182L/K184T mutant assessed as inhibition constant
measured-endpoint: pKi
In textbook form, pKi equals minus log to base ten of the concentration in mol/L.

Specify measured pKi for CC(C)Oc1ccc(C(=O)N[C@H](CNC(=O)CN(C)C)Cc2ccc(-c3cn4cccc([C@H](C)O)c4n3)cc2)cc1Cl [GSK-923295A] .
7.74

====

# target-entity: Centromere-associated protein E (Homo sapiens, UniProt Q02224, T183A)
# assay-overview: Binding affinity to human CENP-E T183A mutant assessed as inhibition constant
measured-endpoint: Ki

Give Ki for the following compound: CC(C)Oc1ccc(C(=O)N[C@H](CNC(=O)CN(C)C)Cc2ccc(-c3cn4cccc([C@H](C)O)c4n3)cc2)cc1Cl [GSK-923295A]
13 nM

====

# target-entity: Centromere-associated protein E (Homo sapiens, UniProt Q02224, I182L/T183A)
# assay-overview: Binding affinity to human CENP-E I182L/T183A mutant assessed as inhibition constant
measured-endpoint: Ki (nM)
Just the number please, in nM, no unit attached.

Entry CC(C)Oc1ccc(C(=O)N[C@H](CNC(=O)CN(C)C)Cc2ccc(-c3cn4cccc([C@H](C)O)c4n3)cc2)cc1Cl [GSK-923295A] needs its Ki filled in; supply it.
61

====

# target-entity: Centromere-associated protein E (Homo sapiens)
# assay-overview: Uncompetitive binding affinity to microtubule-stimulated ATPase activity of C-terminal 6-his-tagged CENP-E (2 to 340 residues)(unknown origin) expressed in Escherichia coli BL21(DE3) assessed as apparent inhibition constant
# condition-info: read-out: Ki(app)
measured-endpoint: pKi
Please express pKi as -log10 of the molar concentration.

> print(dat)
                                   molecule                             target.entity  measured.endpoint  assay.value
1  CC(C)Oc1ccc(C(=O)N[C@H](CNC(=O)CN(C)C)Cc2ccc(-c3cn4cccc([C@H](C)O)c4n3)cc2)cc1Cl [GSK-923295A]  Centromere-associated protein E (Homo sapiens)                pKi         8.49

Please report pKi for the following molecule: Cc1cccn2cc(-c3ccc(C[C@@H](CCO)NC(=O)c4ccc(OC(C)C)c(C#N)c4)cc3)nc12
8.33

====

# target-entity: Centromere-associated protein E (Homo sapiens, UniProt Q02224, I182L)
# assay-overview: Binding affinity to human CENP-E I182L mutant assessed as inhibition constant
measured-endpoint: Ki
Dear colleague, please send the value followed by its unit.

Look up Ki of CC(C)Oc1ccc(C(=O)N[C@H](CNC(=O)CN(C)C)Cc2ccc(-c3cn4cccc([C@H](C)O)c4n3)cc2)cc1Cl [GSK-923295A] and report it.
14 nM

====

# target-entity: Centromere protein E (Canis lupus familiaris, UniProt A0A8P0P634)
measured-endpoint: pKi
pKi (log units): -log10 of the concentration in mol/L.

# return pKi of CC(C)Oc1ccc(C(=O)N[C@H](CNC(=O)CN(C)C)Cc2ccc(-c3cn4cccc([C@H](C)O)c4n3)cc2)cc1Cl [GSK-923295A] (system: Centromere protein E (Canis lupus familiaris, UniProt A0A8P0P634))
8.80
